FYI, the data here is from patent US8778958B2.

ASSAYED_TARGET: μ-opioid receptor (Homo sapiens)
Construct: expressed in transfected cells; host or cells: CHO cells
Sequence (P35372 whole entry): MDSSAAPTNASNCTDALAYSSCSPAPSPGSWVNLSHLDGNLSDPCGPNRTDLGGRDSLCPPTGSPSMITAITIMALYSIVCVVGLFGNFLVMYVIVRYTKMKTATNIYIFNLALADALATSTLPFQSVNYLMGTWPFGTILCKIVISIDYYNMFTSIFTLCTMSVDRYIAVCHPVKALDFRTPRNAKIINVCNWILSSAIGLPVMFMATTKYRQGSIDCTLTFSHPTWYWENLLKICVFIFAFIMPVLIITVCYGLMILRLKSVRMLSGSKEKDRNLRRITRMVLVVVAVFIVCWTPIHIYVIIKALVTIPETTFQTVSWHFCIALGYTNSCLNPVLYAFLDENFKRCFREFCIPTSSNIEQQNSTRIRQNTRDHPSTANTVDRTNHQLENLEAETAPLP
ASSAY_PROTOCOL: biochemical
Assay type: binding
ASSAY_CONTEXT: Ki (nM) ± SEM, μ, Table 1b, N-oxides
MEASURE: log10 of Ki (log10 of the value in nM)
Friendly reminder: values = log10 of Ki, unit nM.

Parameter requested: log10 of Ki. Apply to each item below.
1. O=C(N[C@@H]1CC[C@@]2(O)[C@H]3Cc4ccc(O)c5c4[C@@]2(CC[N+]3([O-])CC2CC2)[C@H]1O5)c1ccc(Cl)cc1 (stereo partly drawn)
2. COc1ccc(C(=O)N[C@@H]2CC[C@@]3(O)[C@H]4Cc5ccc(O)c6c5[C@@]3(CC[N+]4([O-])CC3CC3)[C@H]2O6)cc1OC (stereo partly drawn)
3. O=C(NC1CCC2(O)C3Cc4ccc(O)c5c4C2(CC[N+]3([O-])CC2CC2)C1O5)c1ccc(Cl)c(F)c1 (stereo not drawn)
4. COc1cccc(C(=O)N[C@@H]2CC[C@@]3(O)[C@H]4Cc5ccc(O)c6c5[C@@]3(CC[N+]4([O-])CC3CC3)[C@H]2O6)c1 (stereo partly drawn) [Compound 30]

A.
1: 0.67; 2: 1.57; 3: 1.15; 4: 1.20

Parameter requested: log10 of Ki. Apply to each item below.
1. CC(C)(C)c1ccc(C(=O)N[C@@H]2CC[C@@]3(O)[C@H]4Cc5ccc(O)c6c5[C@@]3(CC[N+]4([O-])CC3CC3)[C@H]2O6)cc1 (stereo partly drawn)
2. CN(C(=O)c1ccc(I)cc1)[C@H]1CC[C@@]2(O)[C@H]3Cc4ccc(O)c5c4[C@@]2(CC[N+]3([O-])CC2CC2)[C@H]1O5 (stereo partly drawn)

A.
1. 0.23
2. 1.44
